Just for reference, PubChem BioAssay is where these values come from.

Readings of z-score for the listed compounds
# Method notes: P. aeruginosa biofilm formation inhibitors, primary screen, PAO1 strain, BacTiter-Glo luminescence, LB-PBS (AID 1144)
# Cond: 12 h, higher = more signal
Activity calls are given as the source filed them. How the calls were made is not given here.

Known z-score results, listed for orientation:
C=CCC(OC(C)=O)[C@@H]1[C@@H](N(Cc2ccc(-c3ccccc3)cc2)C(=O)c2ccc(C)cc2)c2cc(OCCCO)ccc2N1C(=O)Cc1ccc2ccccc2c1 (some centres not stated)	-0.0727 (inactive)
C=CCN1C(=O)[C@@]2(O[C@@H](CCO)[C@H]([Si](C)(C)c3ccc(OC)cc3)[C@H]2C)c2cc(N3CCOC3=O)ccc21	-0.202 (inactive)
[N-]=[N+]=Nc1ccccc1[C@@H]1OC(c2ccc(OCCCO)cc2)=N[C@]1(Cc1ccccc1)C(=O)NCc1ccccc1	-0.065 (inactive)
CCCNC(=O)[C@@]1(C)c2ccccc2C(=O)N(Cc2ccccc2)[C@H]1c1ccc(CO)cc1	0.62 (inactive)
C=C(C)[C@@H]1CC=C(C(O)C2C=CC3C(=O)N(c4ccccc4)C(=O)C3N2Nc2ccc(C#N)cc2)CC1 (some centres not stated)	-1.68 (inactive)
COC(=O)C1=CC(CCCO)=CC(C)N(Cc2cccc(OC(F)(F)F)c2)C=C1C(=O)OC (configuration not stated)	-0.117 (inactive)

Moving on to another compound below.
Could you share which z-score value was measured for [N-]=[N+]=NCc1ccccc1[C@@H]1OC(c2ccc(OCCCO)cc2)=N[C@]1(Cc1ccccc1N=[N+]=[N-])C(=O)N1CCCCC1 ?
-0.166 (inactive)
